# pIC50 annotations
- System: RS4;11 cells
- protocolDetails: Cell viability assay, MTS, 48 h, RS4;11
- Type: cell-based
- settings: Homo sapiens, RS4-11, 48 h, 48 hours, read-out: IC50 (48 hours) RS4;11
pIC50: −log10 of the molar value.

These solved cases illustrate the format of a correct answer.
CC1(CNC(=O)CCCCNc2cccc3c2C(=O)N(C2CCC(=O)NC2=O)C3=O)CCC(c2ccc(Cl)cc2)=C(CN2CCN(c3ccc(C(=O)NS(=O)(=O)c4ccc(N[C@H](CCN5CCOCC5)CSc5ccccc5)c(S(=O)(=O)C(F)(F)F)c4)cc3)CC2)C1 (stereo partly shown)	6.82 to 7.30
Cc1ncsc1-c1ccc([C@H](C)NC(=O)[C@@H]2C[C@@H](O)CN2C(=O)[C@@H](NC(=O)CCCCCCCN2CCN(CC3(C)CCC(c4ccc(Cl)cc4)=C(CN4CCN(c5ccc(C(=O)NS(=O)(=O)c6ccc(N[C@H](CCN7CCOCC7)CSc7ccccc7)c(S(=O)(=O)C(F)(F)F)c6)cc5)CC4)C3)CC2)C(C)(C)C)cc1 (stereo partly shown)	6.82 to 7.30
CC1(CNC(=O)CCCCCCCCNc2cccc3c2C(=O)N(C2CCC(=O)NC2=O)C3=O)CCC(c2ccc(Cl)cc2)=C(CN2CCN(c3ccc(C(=O)NS(=O)(=O)c4ccc(N[C@H](CCN5CCOCC5)CSc5ccccc5)c(S(=O)(=O)C(F)(F)F)c4)cc3)CC2)C1 (stereo partly shown)	6.82 to 7.30

Proceeding to the next compound to report its pIC50.
Problem: Please respond with reported pIC50 (system RS4;11 cells) for Cc1ncsc1-c1ccc([C@H](C)NC(=O)[C@@H]2C[C@@H](O)CN2C(=O)[C@@H](NC(=O)CCCCCCCC(=O)N2CCN(CC3(C)CCC(c4ccc(Cl)cc4)=C(CN4CCN(c5ccc(C(=O)NS(=O)(=O)c6ccc(N[C@H](CCN7CCOCC7)CSc7ccccc7)c(S(=O)(=O)C(F)(F)F)c6)cc5)CC4)C3)CC2)C(C)(C)C)cc1 (stereo partly shown) .
Solution: > 7.30

====

- Tested on: RS4;11 cells
- protocolDetails: Cell viability assay, MTS, 48 h, RS4;11
- Format: cell-based
- settings: Homo sapiens, RS4-11, 48 h, 48 hours, read-out: IC50 (48 hours) RS4;11
- Protocol: Acute lymphoblastic leukemia cells (MOLT-4 and RS4; 11) or small cell lung cancer (NCI-H146 or simply H146) were incubated with increasing concentrations of Bcl-xL degraders for 48 h. Cell viability was measured by tetrazolium-based MTS assay.
valueKind: IC50

These solved cases illustrate the format of a correct answer.
Cc1ncsc1-c1ccc([C@H](C)NC(=O)[C@@H]2C[C@@H](O)CN2C(=O)[C@@H](NC(=O)CCCCCCC(=O)N2CCC3(CCN(CC4(C)CCC(c5ccc(Cl)cc5)=C(CN5CCN(c6ccc(C(=O)NS(=O)(=O)c7ccc(N[C@H](CCN8CCOCC8)CSc8ccccc8)c(S(=O)(=O)C(F)(F)F)c7)cc6)CC5)C4)CC3)CC2)C(C)(C)C)cc1 (stereo partly drawn)	< 50 nM
Cc1ncsc1-c1ccc([C@H](C)NC(=O)[C@@H]2C[C@@H](O)CN2C(=O)[C@@H](NC(=O)CCCCCC(=O)NC2CCN(CC3(C)CCC(c4ccc(Cl)cc4)=C(CN4CCN(c5ccc(C(=O)NS(=O)(=O)c6ccc(N[C@H](CCN7CCOCC7)CSc7ccccc7)c(S(=O)(=O)C(F)(F)F)c6)cc5)CC4)C3)CC2)C(C)(C)C)cc1 (stereo partly drawn)	< 50 nM
Cc1ncsc1-c1ccc([C@H](C)NC(=O)[C@@H]2C[C@@H](O)CN2C(=O)[C@@H](NC(=O)CCCCCCC(=O)N2C[C@@H]3C[C@H]2CN3CC2(C)CCC(c3ccc(Cl)cc3)=C(CN3CCN(c4ccc(C(=O)NS(=O)(=O)c5ccc(N[C@H](CCN6CCOCC6)CSc6ccccc6)c(S(=O)(=O)C(F)(F)F)c5)cc4)CC3)C2)C(C)(C)C)cc1 (stereo partly drawn)	< 50 nM
Cc1ncsc1-c1ccc([C@H](C)NC(=O)[C@@H]2C[C@@H](O)CN2C(=O)[C@@H](NC(=O)CCCCCCCCCC(=O)N2CCN(CC3(C)CCC(c4ccc(Cl)cc4)=C(CN4CCN(c5ccc(C(=O)NS(=O)(=O)c6ccc(N[C@H](CCN7CCOCC7)CSc7ccccc7)c(S(=O)(=O)C(F)(F)F)c6)cc5)CC4)C3)CC2)C(C)(C)C)cc1 (stereo partly drawn)	150 to 500 nM
Cc1ncsc1-c1ccc([C@H](C)NC(=O)[C@@H]2C[C@@H](O)CN2C(=O)[C@@H](NC(=O)CCCCCCC(=O)N2CCN(C(=O)C3(C)CCC(c4ccc(Cl)cc4)=C(CN4CCN(c5ccc(C(=O)NS(=O)(=O)c6ccc(N[C@H](CCN7CCOCC7)CSc7ccccc7)c(S(=O)(=O)C(F)(F)F)c6)cc5)CC4)C3)CC2)C(C)(C)C)cc1 (stereo partly drawn)	< 50 nM

Proceeding to the next molecule to report its IC50.
Problem: Return the recorded IC50 value; entry: Cc1ncsc1-c1ccc([C@H](C)NC(=O)[C@@H]2C[C@@H](O)CN2C(=O)[C@@H](NC(=O)CCCCCCCCC(=O)NC[C@]2(C)CCC(c3ccc(Cl)cc3)=C(CN3CCN(c4ccc(C(=O)NS(=O)(=O)c5ccc(N[C@H](CCN6CCOCC6)CSc6ccccc6)c(S(=O)(=O)C(F)(F)F)c5)cc4)CC3)C2)C(C)(C)C)cc1
Solution: < 50 nM

====

# pIC50 annotations
- Test system: RS4;11 cells
- protocolDetails: Cell viability assay, MTS, 48 h, RS4;11
- Type: cell-based
- settings: Homo sapiens, RS4-11, 48 h, 48 hours, read-out: IC50 (48 hours) RS4;11
pIC50: −log10 of the molar value.

Cc1ncsc1-c1ccc([C@H](C)NC(=O)[C@@H]2C[C@@H](O)CN2C(=O)[C@@H](NC(=O)CCCCC(=O)N2CC3(CCN(CC4(C)CCC(c5ccc(Cl)cc5)=C(CN5CCN(c6ccc(C(=O)NS(=O)(=O)c7ccc(N[C@H](CCN8CCOCC8)CSc8ccccc8)c(S(=O)(=O)C(F)(F)F)c7)cc6)CC5)C4)CC3)C2)C(C)(C)C)cc1 (stereo partly drawn)	> 7.30
Cc1ncsc1-c1ccc([C@H](C)NC(=O)[C@@H]2C[C@@H](O)CN2C(=O)[C@@H](NC(=O)COCCOCCOCCOCCOC(=O)N2CCC(c3ccc(Cl)cc3)=C(CN3CCN(c4ccc(C(=O)NS(=O)(=O)c5ccc(N[C@H](CCN6CCOCC6)CSc6ccccc6)c(S(=O)(=O)C(F)(F)F)c5)cc4)CC3)C2)C(C)(C)C)cc1	< 6.30

Proceeding to the next molecule to report its pIC50.
Problem: Return the recorded pIC50 value; entry: Cc1ncsc1-c1ccc([C@H](C)NC(=O)[C@@H]2C[C@@H](O)CN2C(=O)[C@@H](NC(=O)CCCCCCC(=O)N2CCN(C[C@@]3(C)CCC(c4ccc(Cl)cc4)=C(CN4CCN(c5ccc(C(=O)NS(=O)(=O)c6ccc(N[C@H](CCN7CCOCC7)CSc7ccccc7)c(S(=O)(=O)C(F)(F)F)c6)cc5)CC4)C3)CC2)C(C)(C)C)cc1
Solution: 6.30 to 6.82

====

# IC50 annotations
- Test system: RS4 cells
- protocolDetails: Cell viability assay, MTS, 72 h, RS4;11
- Type: cell-based
- settings: Homo sapiens
Numbers only; they are read as nM.

These solved cases illustrate the format of a correct answer.
Cc1ncsc1-c1ccc([C@H](C)NC(=O)[C@@H]2C[C@@H](O)CN2C(=O)[C@@H](NC(=O)CCCCCCCCCCCC(=O)NCC2(C)CCC(c3ccc(Cl)cc3)=C(CN3CCN(c4ccc(C(=O)NS(=O)(=O)c5ccc(N[C@H](CCN6CCOCC6)CSc6ccccc6)c(S(=O)(=O)C(F)(F)F)c5)cc4)CC3)C2)C(C)(C)C)cc1 (stereo partly drawn) [Compound 56]	410
Cc1ncsc1-c1ccc([C@H](C)NC(=O)[C@@H]2C[C@@H](O)CN2C(=O)[C@@H](NC(=O)CCCCCCCCC(=O)NCC2(C)CCC(c3ccc(Cl)cc3)=C(CN3CCN(c4ccc(C(=O)NS(=O)(=O)c5ccc(N[C@H](CCN6CCOCC6)CSc6ccccc6)c(S(=O)(=O)C(F)(F)F)c5)cc4)CC3)C2)C(C)(C)C)cc1 (stereo partly drawn) [Compound 53]	17.4
Cc1ncsc1-c1ccc([C@H](C)NC(=O)[C@@H]2C[C@@H](O)CN2C(=O)[C@@H](NC(=O)CCCCC(=O)NCC2(C)CCC(c3ccc(Cl)cc3)=C(CN3CCN(c4ccc(C(=O)NS(=O)(=O)c5ccc(N[C@H](CCN6CCOCC6)CSc6ccccc6)c(S(=O)(=O)C(F)(F)F)c5)cc4)CC3)C2)C(C)(C)C)cc1 (stereo partly drawn) [Compound 49]	303

Problem: Return the recorded IC50 value; entry: Cc1ncsc1-c1ccc([C@H](C)NC(=O)[C@@H]2C[C@@H](O)CN2C(=O)[C@@H](NC(=O)CCCCCCCCCCC(=O)NCC2(C)CCC(c3ccc(Cl)cc3)=C(CN3CCN(c4ccc(C(=O)NS(=O)(=O)c5ccc(N[C@H](CCN6CCOCC6)CSc6ccccc6)c(S(=O)(=O)C(F)(F)F)c5)cc4)CC3)C2)C(C)(C)C)cc1 (stereo partly drawn) [Compound 55]
Solution: 96

Problem: Return the recorded IC50 value; entry: Cc1ncsc1-c1ccc([C@H](C)NC(=O)[C@@H]2C[C@@H](O)CN2C(=O)[C@@H](NC(=O)CCCCCC(=O)NCC2(C)CCC(c3ccc(Cl)cc3)=C(CN3CCN(c4ccc(C(=O)NS(=O)(=O)c5ccc(N[C@H](CCN6CCOCC6)CSc6ccccc6)c(S(=O)(=O)C(F)(F)F)c5)cc4)CC3)C2)C(C)(C)C)cc1 (stereo partly drawn) [Compound 50]
Solution: 99

Problem: Return the recorded IC50 value; entry: Cc1ncsc1-c1ccc([C@H](C)NC(=O)[C@@H]2C[C@@H](O)CN2C(=O)[C@@H](NC(=O)CCCCCCCC(=O)NCC2(C)CCC(c3ccc(Cl)cc3)=C(CN3CCN(c4ccc(C(=O)NS(=O)(=O)c5ccc(N[C@H](CCN6CCOCC6)CSc6ccccc6)c(S(=O)(=O)C(F)(F)F)c5)cc4)CC3)C2)C(C)(C)C)cc1 (stereo partly drawn) [Compound 52]
Solution: 43
